B1: Pistol ribozyme (parent)
chain: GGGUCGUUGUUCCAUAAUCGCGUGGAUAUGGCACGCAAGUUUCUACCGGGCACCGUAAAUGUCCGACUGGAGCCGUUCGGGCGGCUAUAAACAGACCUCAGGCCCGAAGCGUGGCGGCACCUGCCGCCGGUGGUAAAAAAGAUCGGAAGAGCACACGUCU

Variants of: B1
experiment: aptazyme ON/OFF ratio, guanine; higher = stronger switching; co-transcriptional cleavage with and without guanine
Quick reference: aptazyme ON/OFF ratio of the listed items.
The response must contain the number and no unit.

Given the variant U8G U10C U11G C12A C13A , what is its reported aptazyme ON/OFF ratio?
1.16

Please do the same for U7G U8A U11A C12A C13U as well.
1.39

Okay, and U8C G9C U10C C12U C13G ?
1.07

Please answer likewise for U8G C12U C13U
1.18

Others:
Dear colleague, I am looking for the recorded aptazyme ON/OFF ratio of the following variant: U7A U8G U11G C12U C13A
1.63

Follow-up entry: U8G U10G U11A C13G
1.18

This collection of values is drawn from the RNAGym collection of RNA variant scans (doi:10.1021/acssynbio.7b00057).
